Assay comment: Pharmacokinetics study in healthy cats (plasma curcumin by HPLC)
Format: in vivo
Experimental setup: plasma, po, 250 mg/kg, oral 250 mg/kg, two dosing (b.i.d.) 12 h apart, plasma curcumin
Property: Cmax

IN: // query Cmax value for entry `COc1cc(/C=C/C(=O)CC(=O)/C=C/c2ccc(O)c(OC)c2)ccc1O`
OUT: 241 ng/mL
